// AChE (EC3.1.1.7, Sigma product no. C2888) (Electrophorus electricus) pIC50 records
// field semantics: pIC50 = negative decimal log of concentration (mol/L)

Item `CC1=C[C@H]2Cc3[nH]c(=O)ccc3[C@]3(C1)NCCC[C@H]23` with AChE (EC3.1.1.7, Sigma product no. C2888) (Electrophorus electricus) - pIC50? 4.69

How about this molecule: `C=C[C@@H]1[C@H]2C=C(CO)C[C@]1(N)c1ccc(=O)[nH]c1C2` 4.62

How about this molecule: C=CC1C2C=C(C)CC1(NC)c1ccc(=O)[nH]c1C2 (stereo not shown) 5.72
